Listing of entries alongside the reported RS (relative selectivity against AlaPro-mTGase from S. mobaraensis).
Target Or System: wild type human growth hormone (human, UniProt P01241 27-217)
Sequence (P01241 27-217): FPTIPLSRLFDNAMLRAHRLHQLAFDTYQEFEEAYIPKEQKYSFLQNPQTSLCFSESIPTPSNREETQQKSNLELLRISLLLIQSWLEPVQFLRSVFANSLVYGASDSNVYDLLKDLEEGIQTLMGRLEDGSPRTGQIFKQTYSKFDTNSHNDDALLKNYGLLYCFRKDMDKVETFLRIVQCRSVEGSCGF
Method: cell-based or functional assay
Enter a number only.

Record excerpt, results attached:
Provide only the value of recorded RS (relative selectivity against AlaPro-mTGase from S. mobaraensis) for GlyPro-mTGase_Y62H_Y75F from S. ladakanum (enzyme) GPDSDERVTPPAEPLDRMPDPYRPSYGRAETIVNNYIRKWQQVYSHRDGRKQQMTEEQREWLSHGCVGVTWVNSGQFPTNRLAFAFFDEDKYKNELKNGRPRSGETRAEFEGRVAKDSFDEAKGFQRARDVASVMNKALENAHDEGAYLDNLKKELANGNDALRNEDARSPFYSALRNTPSFKDRNGGNHDPSKMKAVIYSKHFWSGQDRSGSSDKRKYGDPEAFRPDRGTGLVDMSRDRNIPRSPTSPGESFVNFDYGWFGAQTEADADKTVWTHGNHYHAPNGSLGAMHVYESKFRNWSDGYSDFDRGAYVVTFVPKSWNTAPDKVTQGWP 6.4

Provide only the value of recorded RS (relative selectivity against AlaPro-mTGase from S. mobaraensis) for GlyPro-mTGase_Y75A from S. ladakanum (enzyme) GPDSDERVTPPAEPLDRMPDPYRPSYGRAETIVNNYIRKWQQVYSHRDGRKQQMTEEQREWLSYGCVGVTWVNSGQAPTNRLAFAFFDEDKYKNELKNGRPRSGETRAEFEGRVAKDSFDEAKGFQRARDVASVMNKALENAHDEGAYLDNLKKELANGNDALRNEDARSPFYSALRNTPSFKDRNGGNHDPSKMKAVIYSKHFWSGQDRSGSSDKRKYGDPEAFRPDRGTGLVDMSRDRNIPRSPTSPGESFVNFDYGWFGAQTEADADKTVWTHGNHYHAPNGSLGAMHVYESKFRNWSDGYSDFDRGAYVVTFVPKSWNTAPDKVKQGWP 3

Provide only the value of recorded RS (relative selectivity against AlaPro-mTGase from S. mobaraensis) for GlyPro-mTGase_Y75N from S. ladakanum (enzyme) GPDSDERVTPPAEPLDRMPDPYRPSYGRAETIVNNYIRKWQQVYSHRDGRKQQMTEEQREWLSYGCVGVTWVNSGQNPTNRLAFAFFDEDKYKNELKNGRPRSGETRAEFEGRVAKDSFDEAKGFQRARDVASVMNKALENAHDEGAYLDNLKKELANGNDALRNEDARSPFYSALRNTPSFKDRNGGNHDPSKMKAVIYSKHFWSGQDRSGSSDKRKYGDPEAFRPDRGTGLVDMSRDRNIPRSPTSPGESFVNFDYGWFGAQTEADADKTVWTHGNHYHAPNGSLGAMHVYESKFRNWSDGYSDFDRGAYVVTFVPKSWNTAPDKVKQGWP 3.4

---
Provide only the value of recorded RS (relative selectivity against AlaPro-mTGase from S. mobaraensis) for GlyPro-mTGase from S. ladakanum (enzyme) GPDSDERVTPPAEPLDRMPDPYRPSYGRAETIVNNYIRKWQQVYSHRDGRKQQMTEEQREWLSYGCVGVTWVNSGQYPTNRLAFAFFDEDKYKNELKNGRPRSGETRAEFEGRVAKDSFDEAKGFQRARDVASVMNKALENAHDEGAYLDNLKKELANGNDALRNEDARSPFYSALRNTPSFKDRNGGNHDPSKMKAVIYSKHFWSGQDRSGSSDKRKYGDPEAFRPDRGTGLVDMSRDRNIPRSPTSPGESFVNFDYGWFGAQTEADADKTVWTHGNHYHAPNGSLGAMHVYESKFRNWSDGYSDFDRGAYVVTFVPKSWNTAPDKVKQGWP 1.8

Provide only the value of recorded RS (relative selectivity against AlaPro-mTGase from S. mobaraensis) for GlyPro-mTGase_Y75F from S. ladakanum (enzyme) GPDSDERVTPPAEPLDRMPDPYRPSYGRAETIVNNYIRKWQQVYSHRDGRKQQMTEEQREWLSYGCVGVTWVNSGQFPTNRLAFAFFDEDKYKNELKNGRPRSGETRAEFEGRVAKDSFDEAKGFQRARDVASVMNKALENAHDEGAYLDNLKKELANGNDALRNEDARSPFYSALRNTPSFKDRNGGNHDPSKMKAVIYSKHFWSGQDRSGSSDKRKYGDPEAFRPDRGTGLVDMSRDRNIPRSPTSPGESFVNFDYGWFGAQTEADADKTVWTHGNHYHAPNGSLGAMHVYESKFRNWSDGYSDFDRGAYVVTFVPKSWNTAPDKVKQGWP 5.1

Provide only the value of recorded RS (relative selectivity against AlaPro-mTGase from S. mobaraensis) for AlaPro-mTGase from S. mobaraensis (enzyme) APDSDDRVTPPAEPLDRMPDPYRPSYGRAETVVNNYIRKWQQVYSHRDGRKQQMTEEQREWLSYGCVGVTWVNSGQYPTNRLAFASFDEDRFKNELKNGRPRSGETRAEFEGRVAKESFDEEKGFQRAREVASVMNRALENAHDESAYLDNLKKELANGNDALRNEDARSPFYSALRNTPSFKERNGGNHDPSRMKAVIYSKHFWSGQDRSSSADKRKYGDPDAFRPAPGTGLVDMSRDRNIPRSPTSPGEGFVNFDYGWFGAQTEADADKTVWTHGNHYHAPNGSLGAMHVYESKFRNWSEGYSDFDRGAYVITFIPKSWNTAPDKVKQGWP 1

Provide only the value of recorded RS (relative selectivity against AlaPro-mTGase from S. mobaraensis) for GlyPro-mTGase_Y62H_Y75N from S. ladakanum (enzyme) GPDSDERVTPPAEPLDRMPDPYRPSYGRAETIVNNYIRKWQQVYSHRDGRKQQMTEEQREWLSHGCVGVTWVNSGQNPTNRLAFAFFDEDKYKNELKNGRPRSGETRAEFEGRVAKDSFDEAKGFQRARDVASVMNKALENAHDEGAYLDNLKKELANGNDALRNEDARSPFYSALRNTPSFKDRNGGNHDPSKMKAVIYSKHFWSGQDRSGSSDKRKYGDPEAFRPDRGTGLVDMSRDRNIPRSPTSPGESFVNFDYGWFGAQTEADADKTVWTHGNHYHAPNGSLGAMHVYESKFRNWSDGYSDFDRGAYVVTFVPKSWNTAPDKVKQGWP 4.6
